protocol text: method code SF-AS, from DOI: 10.1016/s0020-1693(00)85781-3
readout type: logP

1) CC(C)(C)c1ccc2c(c1)COCCOCCOCCOCCOCCOC2
1.71
2) CCc1ccc2c(c1)COCCOCCOCCOCCOCCOC2
0.98
3) c1ccc2c(c1)COCCOCCOCc1ccccc1COCCOC2
2.21

---

protocol text: method code SF-GLC, from DOI: 10.1016/0045-6535(95)00311-u
readout type: logP

1) CCCCCCCCCC(Cl)(Cl)Cl
5.85

---

protocol text: method code SF-RC,FL, from DOI: 10.1016/0006-2952(81)90006-x, PMID: 6456004
readout type: logP

1) NCCc1ccc(O)cc1
-0.24

---

protocol text: method code SF-AS, from DOI: 10.1016/0378-5173(84)90231-x
Collected logP values appear next to each entry.
readout type: logP

1) CC(C)(C)[N+]([O-])=Cc1ccccc1
1.22
2) CC(C)(C)[N+]([O-])=Cc1ccc(F)cc1
1.42

---

protocol text: method code SF-AS, from PMID: 8197227
study conditions: pH 7.4
Collected logD values appear next to each entry.
readout type: logD

1. Cc1csc(NN=Cc2ccc3c(c2)OCO3)n1
1.5
2. NC(=S)NNCc1ccc2c(c1)OCO2
0.14
3. c1csc(NNCc2ccc3c(c2)OCO3)n1
1.8
4. NC(=S)N/N=C\c1ccc2c(c1)OCO2
1.4
5. O=C(NNc1nc(-c2ccccc2)cs1)c1ccc2c(c1)OCO2
2.14

---

readout type: logP

1) CCCN(CCCCN1C(=O)CC2(CCCC2)CC1=O)C1COc2cccc(OC)c2C1 (stereo unspecified)
4.8

---

readout type: logP

1) CCCCCCN1CC(C(=O)O)CC1=O (centres undefined)
1.6
2) CCCCCCN1CCCC1=O
2.6
3) CCCCCCCCCCCCN1CC(C(=O)OC)CC1=O (centres undefined)
4
4) CN1CC(C(=O)O)CC1=O (centres undefined)
-1.5

---

readout type: logP

1) CCOC(=O)c1ccc(O)cc1
2.25

---

protocol text: method code SF, from DOI: 10.1021/jm5019252, PMID: 25906180
study conditions: pH 7.4
readout type: logD

1. CN(C(=O)Oc1ccc(O)c(C(=O)NCc2cccnc2)c1)c1ccccc1
2.95
2. COC(=O)c1cc(OC(=O)N(c2ccccc2)c2ccccc2)ccc1O
4.46
3. CN(C(=O)Oc1ccc(O)c(C(=O)NCc2ccccc2)c1)c1ccccc1
4.19
4. COC(=O)c1cc(OC(=O)N(C)c2ccccc2)ccc1O
3.13

---

Collected logP values appear next to each entry.
protocol text: method code SF-GLC, from DOI: 10.1016/s0045-6535(02)00841-x, PMID: 12615110
readout type: logP

1. Brc1ccc(Oc2cc(Br)c(Br)cc2Br)c(Br)c1
7.32
2. Brc1ccc(Oc2ccccc2Br)c(Br)c1
5.74
3. Brc1ccc(Oc2ccc(Br)cc2Br)cc1
5.94
4. Brc1ccc(Oc2ccc(Br)c(Br)c2Br)c(Br)c1
7.37
5. Brc1cc(Br)c(Oc2cc(Br)c(Br)cc2Br)cc1Br
7.9

---

protocol text: method code SF-RC, from DOI: 10.1016/j.nucmedbio.2014.05.001, PMID: 24969632
study conditions: pH 7.4
readout type: logD

1) O=C(N1CCN(C(c2ccccc2)c2ccccc2)CC1)n1nnc2ccccc21
3.61
2) O=C(N1CCC(C(c2ccc3c(c2)OCO3)c2ccc3c(c2)OCO3)CC1)n1cncn1
3.32
3) O=C(OC(C(F)(F)F)C(F)(F)F)N1CCN(Cc2cccc(Oc3ccccc3)c2)CC1
5
